assayName: Systemic pharmacokinetics after oral (PO) and intraperitoneal (IP) administration
Type: in vivo
runConditions: male, CD-1, mouse, plasma, po, 30 mg/kg, Formulation 1 (G1), PO, male CD-1 mice, read-out: relative bioavailability
measureName: bioavailability (%)
# value in %; strip the unit string

The recorded bioavailability for "CCOC(=O)Nc1ccc2c(c1)C(=O)N(CC)c1ccccc1O2" is 13.1

###

assayName: Systemic pharmacokinetics after oral (PO) and intraperitoneal (IP) administration
Format: in vivo
runConditions: male, CD-1, mouse, plasma, ip, 30 mg/kg, Formulation 1 (G2), male CD-1 mice
measureName: half-life (h)
# value in h; strip the unit string

The recorded half-life for CCOC(=O)Nc1ccc2c(c1)C(=O)N(CC)c1ccccc1O2 [BT2] is 8.72
